KIDNEY_L by entry:
Species on record: Rattus norvegicus
assayComment: Open TG-GATES - Regimen: Daily Repeat
Format: toxicity, organism-based, Sprague-Dawley
Set-up: regimen Daily Repeat, gender Male, age 6 weeks
experimentalContext: in vivo, po, 100 mg/kg, […], tissue Kidney, route gavage, dose level Low, time 28 day
// return numeric value only (unit: g, not printed)

compound="CCCCNC(=O)NS(=O)(=O)c1ccc(C)cc1 [TOLBUTAMIDE]" testreadout=KIDNEY_L scaleunit=g recordednumber=1.3

Give the measured KIDNEY_L of `O=C(O)c1ccccc1Nc1ccccc1` .
1.5

Give the measured KIDNEY_L of `CC(=O)[C@@]1(O)CC[C@H]2[C@@H]3C=C(Cl)C4=CC(=O)CC[C@]4(C)[C@H]3CC[C@@]21C` .
1.3

Give the measured KIDNEY_L of CC(S)C(=O)NCC(=O)O (centres undefined) .
1.3
